# MEASURED_ON: human PPARalpha (Homo sapiens, UniProt Q07869)
# Construct: human PPARalpha receptor (amino acids S167-Y468)
# Sequence (Q07869 167-468): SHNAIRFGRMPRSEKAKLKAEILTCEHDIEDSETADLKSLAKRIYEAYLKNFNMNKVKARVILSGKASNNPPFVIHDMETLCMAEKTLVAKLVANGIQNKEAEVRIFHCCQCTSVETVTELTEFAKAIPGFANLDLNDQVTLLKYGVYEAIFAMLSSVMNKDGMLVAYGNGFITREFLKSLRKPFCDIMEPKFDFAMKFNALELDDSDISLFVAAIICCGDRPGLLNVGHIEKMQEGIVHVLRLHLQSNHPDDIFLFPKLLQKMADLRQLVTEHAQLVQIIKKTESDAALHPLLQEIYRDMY
# METHOD_SUMMARY: Cellular PPARalpha assay (stably transfected HEK luciferase reporter cell line)
# PARTICULARS: PPARalpha reporter cell line (HEK, GR-GAL4-humanPPARalpha-LBD), 24 h incubation
VALUE_TYPE: EC50 (nM)
Response body: numeric value in nM, unit text excluded.

Simply: `Cc1ccc(-c2nc(COCCCOCc3cccc(C)c3C(=O)O)c(C3CCCCC3)o2)cc1` , human PPARalpha (Homo sapiens, UniProt Q07869), EC50 = 22

Simply: Cc1cccc(COCCCOCc2coc(-c3ccccc3)n2)c1C(=O)O [*, reference compound] , human PPARalpha (Homo sapiens, UniProt Q07869), EC50 = 1

Simply: `Cc1cccc(COCCCOCc2nc(-c3ccc(Oc4ccccc4)cc3)oc2C)c1C(=O)O` , human PPARalpha (Homo sapiens, UniProt Q07869), EC50 = 11
